# Experimental Target: Steryl-sulfatase (Homo sapiens) (UniProt P08842)
# Sequence (P08842 whole entry): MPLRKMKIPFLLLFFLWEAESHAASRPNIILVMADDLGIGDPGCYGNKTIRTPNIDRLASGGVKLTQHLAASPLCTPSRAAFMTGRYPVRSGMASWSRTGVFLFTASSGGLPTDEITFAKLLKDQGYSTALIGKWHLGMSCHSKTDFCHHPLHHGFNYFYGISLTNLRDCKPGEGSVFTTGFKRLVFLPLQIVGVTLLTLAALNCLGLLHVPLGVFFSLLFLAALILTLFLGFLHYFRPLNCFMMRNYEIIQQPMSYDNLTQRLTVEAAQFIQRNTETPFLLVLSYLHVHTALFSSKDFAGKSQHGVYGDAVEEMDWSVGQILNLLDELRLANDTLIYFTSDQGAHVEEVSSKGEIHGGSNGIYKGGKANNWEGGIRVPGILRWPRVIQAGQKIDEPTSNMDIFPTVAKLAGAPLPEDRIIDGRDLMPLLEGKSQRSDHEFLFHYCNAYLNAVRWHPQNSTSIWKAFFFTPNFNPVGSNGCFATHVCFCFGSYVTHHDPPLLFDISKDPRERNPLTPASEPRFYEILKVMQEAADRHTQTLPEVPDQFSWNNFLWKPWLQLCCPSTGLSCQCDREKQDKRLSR
# Procedure Details: Inhibition of STS (unknown origin) expressed in HEK-293 cells assessed as transformation of [3H]-E1S into E1 at 1 uM by […]
# Assay type: cell-based
# Condition Summary: HEK293
Endpoint: inhibition
Please format your answer as a value with the unit trailing.

Indicate the recorded inhibition value for this compound: NS(=O)(=O)Oc1ccc2c(c1)CN(C(=O)c1ccc(N3CCN(c4ncccn4)CC3)cc1)CC2 41.9%

Determine its reported inhibition: NS(=O)(=O)Oc1ccc2c(c1)CN(C(=O)c1cccc(N3CCOCC3)c1)CC2 20.9%

Read the entry CN(CCN1CCCCC1)c1cccc(C(=O)N2CCc3ccc(OS(N)(=O)=O)cc3C2)c1 and write its reported inhibition. 30.8%

Indicate its recorded inhibition; the compound in question is CN(CCCN1CCCCC1)c1cccc(C(=O)N2CCc3ccc(OS(N)(=O)=O)cc3C2)c1 30.6%
